What follows is a collection of pIC50 values obtained with SARS-CoV-2 3CL^pro (Severe acute respiratory syndrome coronavirus 2).
Note: pIC50 values are expressed as the negative base-10 logarithm of concentration in M.

compound | pIC50
O=C(Cc1cccnc1)N(Cc1cccc(Cl)c1)c1ccc(-c2cn[nH]c2)cc1 [compound 7] | 5.90

Let's switch to this compound now.
Recorded result, O=C(Cc1cncc2ccccc12)N(Cc1cc(F)cc(Cl)c1)c1ccc(-c2c[nH]cn2)cc1 [compound 27] , pIC50: 7.59

// provenance: paper PMC10197776
